Numbers sourced from patent US10906940B2.

System: S. aureus 4
Experiment: microbe, parasite or virus in culture
Type: cell-based, Staphylococcus aureus
Conditions: 4
Where a SMILES comes first, the peptide text is derived from it. Bridges are numbered along the chain shown (N, C = ends). [ ]: non-standard residue; d: D form. The star is where a group is joined. Pentadecanoyl = CCCCCCCCCCCCCCC(=O)*; dOrn = NCCC[C@@H](N)C(=O)O
PARAMETER: MIC

COMPOUND | REPORTED
CCCCCCCCCCCCCCC(=O)N[C@H](CCCN)C(=O)N[C@H](C(=O)N[C@@H]1C(=O)N[C@H](CCCN)C(=O)N[C@@H](CO)C(=O)N[C@@H](Cc2ccc(O)cc2)C(=O)N[C@H](CCCCN)C(=O)N[C@H](CO)C(=O)N[C@@H]([C@@H](C)CC)C(=O)N2CCC[C@H]2C(=O)N[C@@H]([C@@H](C)CC)C(=O)N2CCC[C@H]2C(=O)N[C@@H]([C@@H](C)CC)C(=O)O[C@@H]1C)C(C)C [Compound B] (Pentadecanoyl-[dOrn]VT[dOrn]SY[dK][dS]IPIPI; ester 3-C; N-terminus assumed) | 4 µg/mL
